Where do these numbers come from? They come from patent US6946458B2.

test system: MRSA USF652; assay: Kirby-Bauer agar disk diffusion; type: cell-based, Staphylococcus aureus; settings: Table 4; 20 μg disk loading
READOUT_KIND: Zones of Inhibition (mm)
Field: numeric (mm). Do not append units.

CCSN1C(=O)C(OC)C1c1ccccc1Cl (racemic); 33

So what does the record say about Zones of Inhibition for COC1C(=O)N(SC2CCCCC2)C1c1ccccc1Cl (racemic) ?
25

Let us now turn to COC1C(=O)N(SC)C1c1ccccc1Cl (racemic)
30

Let us now turn to CCCCSN1C(=O)C(OC)C1c1ccccc1Cl (racemic)
26

Let us now turn to CCC(C)SN1C(=O)C(OC)C1c1ccccc1Cl (mixture of isomers)
38

* * *

Attribute: The Zone of Inhibition
System: MRSA USF659
Experiment: Kirby-Bauer agar disk diffusion
Assay type: cell-based, Staphylococcus aureus
Conditions: Table 6; 20 μg disk loading
Description: In this study, a selection of N-methylthio-substituted β-lactams are examined for antimicrobial activity by the Kirby-Bauer disk diffusion method on agar plates. A variety of common Gram-positive and Gram-negative bacteria are tested, including clinical isolates of methicillin-resistant Staphylococcus aureus (MRSA). Compound susceptibility measurements are obtained from agar disk diffusion experiments using 6-mm air-dried disks impregnated with 20 μg of the test compound. […]

CCOC(=O)c1ccc(C2C(OC)C(=O)N2SC)cc1 (racemic); 13 mm
COC(=O)c1ccc(C2C(OC)C(=O)N2SC)cc1 (racemic); 13 mm
CCCCCCCCCCOC(=O)c1ccc(C2C(OC)C(=O)N2SC)cc1 (racemic); 0 mm

For MRSA USF659, provide The Zone of Inhibition of CCCCCOC(=O)c1ccc(C2C(OC)C(=O)N2SC)cc1 (racemic) please.
12 mm

* * *

system: MRSA USF657; assay: Kirby-Bauer agar disk diffusion; format: cell-based, Staphylococcus aureus; conditions: Table 4; 20 μg disk loading
Attribute: Zones of Inhibition
Field: numeric (mm). Do not append units.

Field: example entries. Status: answers known.
CCSN1C(=O)C(OC)C1c1ccccc1Cl (racemic); 29
CCCCSN1C(=O)C(OC)C1c1ccccc1Cl (racemic); 26
CCC(C)SN1C(=O)C(OC)C1c1ccccc1Cl (mixture of isomers); 33

So what does the record say about Zones of Inhibition for COC1C(=O)N(SC)C1c1ccccc1Cl (racemic) ?
27

Let us now turn to COC1C(=O)N(SC2CCCCC2)C1c1ccccc1Cl (racemic)
23

* * *

Tested on: MRSA USF656
Experiment: Kirby-Bauer agar disk diffusion
Format: cell-based, Staphylococcus aureus
Conditions: Table 4; 20 μg disk loading
Description: In this study, a selection of N-methylthio-substituted β-lactams are examined for antimicrobial activity by the Kirby-Bauer disk diffusion method on agar plates. A variety of common Gram-positive and Gram-negative bacteria are tested, including clinical isolates of methicillin-resistant Staphylococcus aureus (MRSA). Compound susceptibility measurements are obtained from agar disk diffusion experiments using 6-mm air-dried disks impregnated with 20 μg of the test compound. […]
Attribute: Zones of Inhibition
Field: numeric (mm). Do not append units.

CCC(C)SN1C(=O)C(OC)C1c1ccccc1Cl (mixture of isomers); 36

So what does the record say about Zones of Inhibition for CCCCSN1C(=O)C(OC)C1c1ccccc1Cl (racemic) ?
25

Let us now turn to COC1C(=O)N(SC)C1c1ccccc1Cl (racemic)
28

Let us now turn to COC1C(=O)N(SC2CCCCC2)C1c1ccccc1Cl (racemic)
23

Let us now turn to CCSN1C(=O)C(OC)C1c1ccccc1Cl (racemic)
29
